Attribution: patent US20210221785A1

Target of assay: His-His-USP7 (aa208-560, |C315A|) (Homo sapiens, UniProt Q93009, C315A)
Construct: His-His-USP7 (aa208-560, |C315A|); His-His (N)
Sequence (Q93009 208-560 C315A): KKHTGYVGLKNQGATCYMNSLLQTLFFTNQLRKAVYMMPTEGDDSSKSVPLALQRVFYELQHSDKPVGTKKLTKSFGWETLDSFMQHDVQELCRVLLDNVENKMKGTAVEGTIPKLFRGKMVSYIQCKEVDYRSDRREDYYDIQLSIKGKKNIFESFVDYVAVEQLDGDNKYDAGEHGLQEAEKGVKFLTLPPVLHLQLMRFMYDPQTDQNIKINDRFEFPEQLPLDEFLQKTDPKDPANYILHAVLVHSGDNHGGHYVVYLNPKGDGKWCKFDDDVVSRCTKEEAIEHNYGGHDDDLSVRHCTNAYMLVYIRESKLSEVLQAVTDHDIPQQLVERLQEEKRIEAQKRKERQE
Assay remarks: Evaluation of the inhibition of USP7 by the Fluorescence Intensity (FLINT) readings
Assay type: biochemical
Test conditions: 0.25 nM His-His-USP7, compound incubated 60 minutes at 30° C., 500 nM Ubiquitin-Rhodamine-110 substrate; 50% reduction in kinetic rate
Experimental: USP7 activity was measured using Rhodamine-110 c-terminal labelled Ubiquitin as a substrate (UbiQ Bio). Incubation with USP7 results in the release of Rhodamine-110 leading to an increase in fluorescence which can be used in the continuous measurement of USP7 activity. […] The inhibition of increasing doses of compound was expressed as a percentage reduction in kinetic rate compared to the kinetic rates established between ‘DMSO only’ and ‘total inhibition’ controls (no USP7). […]
Parameter: IC50 (nM)

| Molecule | IC50 / nM |
| --- | --- |
| Nc1c(Oc2ccc(F)c(O)c2)ncn(C[C@@]2(O)CCN(C(=O)[C@@H]3CCC(F)(F)C[C@H]3c3ccccc3)CC2(F)F)c1=O [Example 109] | 40.3 |
| Nc1cccc(C#C[C@@]2(F)CC[C@@H](C(=O)N3CC[C@](O)(Cn4cnc(Oc5ccc(F)cc5)c(N)c4=O)C(F)(F)C3)[C@H](c3ccccc3)C2)n1 [Example 163] | 52.4 |

a: Cc1ccnnc1C#C[C@@]1(F)CC[C@@H](C(=O)N2CC[C@](O)(Cn3cnc(Oc4ccc(F)cc4)c(N)c3=O)C(F)(F)C2)[C@H](c2ccccc2)C1 [Example 171]
b: Nc1c(Oc2ccc(F)c(OC(F)(F)F)c2)ncn(CC2(O)CCN(C(=O)[C@@H]3CCC(F)(F)C[C@H]3c3ccccc3)CC2)c1=O [Example 40]
Prompt: Between a and b , which one shows the larger IC50 value? Lab log: write the label of the selected item as the result.
Completion: b
(b: 132 nM, a: 23.8 nM)

I: C#C[C@]1(F)CC[C@@H](C(=O)N2CCC(O)(Cn3cnc(Oc4ccc(F)cc4)c(N)c3=O)CC2)[C@H](c2ccccc2)C1 [Example 122]
II: CC(N)c1ccc(Oc2ncn(CC3(O)CCN(C(=O)[C@@H]4CCC(F)(F)C[C@H]4c4ccccc4)CC3)c(=O)c2N)cc1 (single isomer, unassigned; diastereoisomer 2) [Example 55]
III: C#C[C@]1(O)CC[C@@H](C(=O)N2CCC(O)(Cn3cnc(Oc4ccc(F)cc4)c(N)c3=O)CC2)[C@H](c2ccccc2)C1 (relative stereo) [Example 92]
IV: Nc1c(Oc2ccc(F)cc2)ncn(CC2(O)CCN(C(=O)[C@@H]3CC[C@@](F)(C#Cc4ccc(F)cn4)C[C@H]3c3ccccc3)CC2)c1=O [Example 134]
Prompt: Put the entries in order of IC50, starting with the largest number. Labels, ranked as asked.
Completion: III, IV, I, II
(III: 230 nM, IV: 80.7 nM, I: 26.3 nM, II: 8.69 nM)

P: CO[C@]1(C#Cc2cncnc2)CC[C@@H](C(=O)N2CC[C@](O)(Cn3cnc(Oc4ccc(F)cc4)c(N)c3=O)C(F)(F)C2)[C@H](c2ccccc2)C1 [Example 175]
Q: Nc1c(Oc2ccc(CCCO)cc2)ncn(CC2(O)CCN(C(=O)[C@@H]3CCC(F)(F)C[C@H]3c3ccccc3)CC2)c1=O [Example 29]
Prompt: Hi there, can you help? I need to know whether P or Q has lower measured IC50. Lab log: write the label of the selected item as the result.
Completion: P
(P: 54 nM, Q: 175 nM)
